Test system: TGW (Neuroblastoma)
Experiment: combination Emax (second highest fraction inhibited in the dose matrix, 72 h); higher = more inhibition; extreme values may be limits of the assay
Below is a list of entries, each paired with its recorded combination Emax value.
value type: combination Emax

- molecule: "CC1(C)CCC(CN2CCN(c3ccc(C(=O)NS(=O)(=O)c4ccc(NCC5CCOCC5)c([N+](=O)[O-])c4)c(Oc4cnc5[nH]ccc5c4)c3)CC2)=C(c2ccc(Cl)cc2)C1 [Venetoclax] + C[C@@H]1COCCN1C2=NC(=NC(=C2)C3(CC3)[S@](=N)(=O)C)C4=C5C=CNC5=NC=C4 [AZD6738] (first compound max 1 µM, 7x7, partner max 10 µM)"
  measured on: "TGW (Neuroblastoma)"
  endpoint value: 0.715
- molecule: "Cc1c2c(nn1C)CSCc1cc(n(C)n1)CSc1cc(c3ccccc3c1)OCCCc1c(C(=O)O)n(C)c3c-2c(Cl)ccc13 [AZD5991] + C[C@@H]1COCCN1C2=NC(=NC(=C2)C3(CC3)[S@](=N)(=O)C)C4=C5C=CNC5=NC=C4 [AZD6738] (first compound max 1 µM, 7x7, partner max 10 µM)"
  measured on: "TGW (Neuroblastoma)"
  endpoint value: 0.714
- molecule: "Cc1c2c(nn1C)CSCc1cc(n(C)n1)CSc1cc(c3ccccc3c1)OCCCc1c(C(=O)O)n(C)c3c-2c(Cl)ccc13 [AZD5991] + Cc1cc2ncnn2cc1Nc1ncc2c(n1)n(C1CCOCC1)c(=O)n2C [AZD7648] (first compound max 1 µM, 7x7, partner max 10 µM)"
  measured on: "TGW (Neuroblastoma)"
  endpoint value: 0.339

Just for reference, the supplement of paper PMC11061612 is where these values come from.
